PROCEDURE_SUMMARY: Stability of canagliflozin in rat plasma samples (QC samples)
Assay type: in vitro ADME
CONDITION_SET: rat plasma; autosampler (4 °C) for 24 h; nominal concentration 500; n = 5
OBSERVATION_TYPE: Concentration found after storage (Mean ± SD) (ng/mL)
Numbers only here, please. The scale is ng/mL.

Enquiry: Form field: reported Concentration found after storage (Mean ± SD) of "Cc1ccc([C@@H]2O[C@H](CO)[C@@H](O)[C@H](O)[C@H]2O)cc1Cc1ccc(-c2ccc(F)cc2)s1"
Return: 503

----------
PROCEDURE_SUMMARY: Stability of canagliflozin in rat plasma samples (QC samples)
Assay type: in vitro ADME
CONDITION_SET: rat plasma; three freeze–thaw cycles (each at −80 °C for 24 h); nominal concentration 800; n = 5
OBSERVATION_TYPE: Concentration found after storage (Mean ± SD)

Enquiry: Form field: reported Concentration found after storage (Mean ± SD) of "Cc1ccc([C@@H]2O[C@H](CO)[C@@H](O)[C@H](O)[C@H]2O)cc1Cc1ccc(-c2ccc(F)cc2)s1"
Return: 806 ng/mL

----------
PROCEDURE_SUMMARY: Plasma pharmacokinetics of canagliflozin and its metabolites after oral administration to CTRL and type 2 diabetic (DM) rats, UPLC-MS/MS
Format: in vivo, rat
CONDITION_SET: rat, plasma, po, 20 mg/kg, Cmax, DM (type 2 diabetic) rats; canagliflozin 20 mg/kg oral; mean ± SD, n = 5; metabolites semi-quantitative
OBSERVATION_TYPE: Cmax (ng/mL)
Numbers only here, please. The scale is ng/mL.

Enquiry: Form field: reported Cmax of "Cc1ccc([C@@H]2O[C@H](CO)[C@@H](O)[C@H](O)[C@H]2O)cc1Cc1ccc(-c2ccc(F)cc2)s1"
Return: 2230

Enquiry: Form field: reported Cmax of Cc1ccc(C2OC(CO)C(O)C(O)C2OC2OC(C(=O)O)C(O)C(O)C2O)cc1Cc1ccc(-c2ccc(F)cc2)s1 (stereo not shown)
Return: 160

Enquiry: Form field: reported Cmax of Cc1ccc(C2OC(CO)C(O)C(O)C2O)cc1C(O)c1ccc(-c2ccc(F)cc2)s1 (stereo not shown)
Return: 161

Enquiry: Form field: reported Cmax of Cc1ccc(C2OC(CO)C(O)C(OC3OC(C(=O)O)C(O)C(O)C3O)C2O)cc1Cc1ccc(-c2ccc(F)cc2)s1 (stereo not shown)
Return: 90.6

----------
PROCEDURE_SUMMARY: Plasma pharmacokinetics of canagliflozin and its metabolites after oral administration to CTRL and type 2 diabetic (DM) rats, UPLC-MS/MS
Type: in vivo, rat
CONDITION_SET: rat, plasma, po, 20 mg/kg, CTRL rats; canagliflozin 20 mg/kg oral; mean ± SD, n = 5
OBSERVATION_TYPE: Tmax (h)
Numbers only here, please. The scale is h.

Enquiry: Form field: reported Tmax of Cc1ccc(C2OC(CO)C(O)C(O)C2O)cc1C(O)c1ccc(-c2ccc(F)cc2)s1 (stereo not shown)
Return: 5.01

Enquiry: Form field: reported Tmax of Cc1ccc(C2OC(CO)C(O)C(O)C2OC2OC(C(=O)O)C(O)C(O)C2O)cc1Cc1ccc(-c2ccc(F)cc2)s1 (stereo not shown)
Return: 1.8

Enquiry: Form field: reported Tmax of Cc1ccc(C2OC(CO)C(O)C(OC3OC(C(=O)O)C(O)C(O)C3O)C2O)cc1Cc1ccc(-c2ccc(F)cc2)s1 (stereo not shown)
Return: 2.02

Enquiry: Form field: reported Tmax of "Cc1ccc([C@@H]2O[C@H](CO)[C@@H](O)[C@H](O)[C@H]2O)cc1Cc1ccc(-c2ccc(F)cc2)s1"
Return: 3.6
